read-out: TIMP metallopeptidase inhibitor 2 (TIMP2), TIMP2 (gene 7077); assay: BSK_KF3CT_TIMP2: BioMAP Diversity Plus: KF3CT Assay for TIMP metallopeptidase inhibitor 2 (TIMP2) Biomarker Activity (AID 2283071); conditions: primary human keratinocytes with fibroblasts; actives raise or lower the signal
Activity calls are given as the source filed them. Rule for the calls: active = hit-call score of the fitted dose curve at least 0.9, where 1 is the maximum; inactive = score below 0.9.
Would you mind answering with one of these outcomes? 1 for active, 0 for inactive

Below, 6 molecules whose answers are already recorded.
>  <Molecule>
CC(C)CCCC(C)(C)O

>  <Assigned Label>
0

$$$$
>  <Molecule>
CCCO[Si](OCCC)(OCCC)OCCC

>  <Assigned Label>
0

$$$$
>  <Molecule>
CCCCCCCC1CCCC1=O (stereo not given)

>  <Assigned Label>
1

$$$$
>  <Molecule>
CCCCOCCOCCO

>  <Assigned Label>
0

$$$$
>  <Molecule>
OCCN1CCOCC1

>  <Assigned Label>
0

$$$$
>  <Molecule>
CCOC(=O)CCCCCCCCC(=O)OCC

>  <Assigned Label>
0

$$$$

query: Test call, this molecule: CC1=CC(C)C(C=O)C(C)C1 (stereo not given) (tested in a mixture with another compound)
result: 0

query: Test call, this molecule: `NC(=O)c1c(Cl)cccc1Cl`
result: 0

query: Test call, this molecule: `CC(=O)OCC=C(C)CCC=C(C)CCC=C(C)C`
result: 0

query: Test call, this molecule: `O=C1OC2(c3ccc(O)cc3Oc3cc(O)ccc32)c2ccccc21`
result: 0

query: Test call, this molecule: `O=C(O)C(F)(F)C(F)(F)C(F)(F)C(F)(F)C(F)(F)C(F)(F)C(F)(F)C(F)F`
result: 0

query: Test call, this molecule: `c1ccc2c(c1)-c1ccc3ccc4cccc5cc-2c1c3c45`
result: 1

query: Test call, this molecule: `CCn1cc(C(=O)O)c(=O)c2ccc(C)nc21`
result: 0

query: Test call, this molecule: `C=C(F)C(=O)OC(C(F)(F)F)C(F)(F)F`
result: 0

query: Test call, this molecule: `c1ccc(Sc2ccccc2)cc1`
result: 1

query: Test call, this molecule: `c1ccc(OCCOc2ccccc2)cc1`
result: 0

query: Test call, this molecule: CC(=O)OC(C)(C)C1CC=C(C)CC1 (stereo not given)
result: 1

query: Test call, this molecule: `C=C1CC/C=C(\C)CC[C@@H]2[C@@H]1CC2(C)C`
result: 1

query: Test call, this molecule: `O=C(O)C(F)(F)OC(F)(F)C(F)(F)OC(F)(F)C(F)(F)C(F)(F)C(F)(F)F`
result: 0

query: Test call, this molecule: `COc1ccccc1NC(=O)CC(C)=O`
result: 0
